- assay-notes: in vitro
- cond: human
Structures can show the parent of a compound that is named as a salt.
assay-metric: viability at 5 µM

> print(dat)
                                   compound  test.value
1                  Nc1ccc2cc3ccc(N)cc3nc2c1       > 70%
2  CCN(CC)CCCC(C)Nc1c2ccc(Cl)cc2nc2ccc(OC)cc12 (centres unmarked) [quinacrine dihydrochloride]       > 70%

###

- assay-notes: in vitro
- cond: human
assay-metric: CC50

> print(dat)
                  compound.structure.string  test.value
1  NC(=O)c1ncn([C@@H]2O[C@H](CO)[C@@H](O)[C@H]2O)n1    ≥ 200 µM

###

# IC50 listing for each entry below
- System: JUNV (Candid #1 strain)
- assay-notes: microbe, parasite or virus in culture
- Format: cell-based, Junin virus (JUNV)
- cond: Mammarenavirus juninense, A549, 48 h
Where a name gives a salt, the structure may show the parent alone.
assay-metric: IC50

> print(dat)
                                   molecule  test.value
1  CC(=O)[C@]1(O)Cc2c(O)c3c(c(O)c2[C@@H](O[C@H]2C[C@H](N)[C@H](O)[C@H](C)O2)C1)C(=O)c1ccccc1C3=O [idarubicin hydrochloride]     2.56 µM
2  NC(=O)c1ncn([C@@H]2O[C@H](CO)[C@@H](O)[C@H]2O)n1 [ribavirin, Ribavirin]     45.4 µM
3  CN(C)CCN1C(=O)c2cccc3cc(N)cc(c23)C1=O [amonafide]     5.75 µM
4     Nc1ccc2cc3ccc(N)cc3nc2c1 [proflavine]     2.45 µM
5  CCN(CC)CCCC(C)Nc1c2ccc(Cl)cc2nc2ccc(OC)cc12 (stereo not drawn) [quinacrine dihydrochloride]     7.33 µM
6  COc1c(C)c2c(c(O)c1C/C=C(\C)CCC(=O)O)C(=O)OC2 [MPA, mycophenolic acid]     0.97 µM

###

Observed CC50 for A549 cells, reported per entry below.
Where a name gives a salt, the structure may show the parent alone.
assay-metric: CC50 (µM)

> print(dat)
                                   compound  display.unit  test.value
1  Cc1c2ccncc2c(C)c2c1[nH]c1ccccc12.Cl [ellipticine hydrochloride]            µM        32.5
2  NCCNc1ccc(NCCN)c2c1C(=O)c1ccncc1C2=O.O=C(O)/C=C\C(=O)O.O=C(O)/C=C\C(=O)O [pixantrone maleate]            µM        30.3
3  CN[C@H]1CN(c2ccc3c(=O)c(C(=O)O)cn(-c4nccs4)c3n2)C[C@@H]1OC [voreloxin (SNS 595) hydrochloride]            µM        13.3

###

- System: JUNV (Candid #1 strain)
- assay-notes: microbe, parasite or virus in culture
- Format: cell-based, Junin virus (JUNV)
pIC50: −log10 of the molar value. Counter-ions that a name gives are not always drawn.
assay-metric: pIC50

> print(dat)
                                   compound  assay.metric  test.value
1  CCN(CC)CCCC(C)Nc1c2ccc(Cl)cc2nc2ccc(OC)cc12 (stereo not shown) [QDD, quinacrine dihydrochloride dihydrate]         pIC50        5.33

###

Where a name gives a salt, the structure may show the parent alone.
Observed CC50 for A549 cells, reported per entry below.
assay-metric: CC50

> print(dat)
                                   molecule  assay.metric  test.value
1  CN[C@H]1CN(c2ccc3c(=O)c(C(=O)O)cn(-c4nccs4)c3n2)C[C@@H]1OC [voreloxin (SNS 595) hydrochloride]          CC50     ≥ 40 µM
2  NCCNc1ccc(NCCN)c2c1C(=O)c1ccncc1C2=O.O=C(O)/C=C\C(=O)O.O=C(O)/C=C\C(=O)O [pixantrone maleate]          CC50     ≥ 40 µM
3  Cc1c2ccncc2c(C)c2c1[nH]c1ccccc12.Cl [ellipticine hydrochloride]          CC50     ≥ 20 µM

###

# pIC50 listing for each entry below
- System: LCMV (rLCMV.Arm)
- assay-notes: microbe, parasite or virus in culture
- Type: cell-based, lymphocytic choriomeningitis virus (LCMV)
- cond: read-out: IC50
pIC50: −log10 of the molar value. Where a name gives a salt, the structure may show the parent alone.
assay-metric: pIC50

> print(dat)
                                   molecule  assay.metric  test.value
1  CN[C@H]1CN(c2ccc3c(=O)c(C(=O)O)cn(-c4nccs4)c3n2)C[C@@H]1OC [voreloxin (SNS 595) hydrochloride]         pIC50        5.07
2  Cc1c2ccncc2c(C)c2c1[nH]c1ccccc12.Cl [ellipticine hydrochloride]         pIC50        5.82
3  NCCNc1ccc(NCCN)c2c1C(=O)c1ccncc1C2=O.O=C(O)/C=C\C(=O)O.O=C(O)/C=C\C(=O)O [pixantrone maleate]         pIC50        5.32

###

- Test system: LASV MG
- assay-notes: microbe, parasite or virus in culture
- Assay type: cell-based, Lassa virus (LASV)
- cond: read-out: IC50
pIC50: −log10 of the molar value. Where a name gives a salt, the structure may show the parent alone.
assay-metric: pIC50

> print(dat)
                                   molecule  test.value
1  Cc1c2ccncc2c(C)c2c1[nH]c1ccccc12.Cl [ellipticine hydrochloride]        6.12
2  CN[C@H]1CN(c2ccc3c(=O)c(C(=O)O)cn(-c4nccs4)c3n2)C[C@@H]1OC [voreloxin (SNS 595) hydrochloride]        5.74
3  NCCNc1ccc(NCCN)c2c1C(=O)c1ccncc1C2=O.O=C(O)/C=C\C(=O)O.O=C(O)/C=C\C(=O)O [pixantrone maleate]        6.00

###

- assay-notes: in vitro
- cond: human, CC50
assay-metric: CC50

> print(dat)
                  compound.structure.string  assay.metric  test.value
1  NC(=O)c1ncn([C@@H]2O[C@H](CO)[C@@H](O)[C@H]2O)n1          CC50    ≥ 200 µM
